# Tested on: Streptococcus sp.
# ASSAY_INFO: in vitro antibacterial evaluation, MIC by broth dilution
# Type: cell-based
# CONDITION_SET: broth dilution, 18 hours at 35° C.; strain GC 4565
ATTRIBUTE_MEASURED: MIC Streptococcus pneumoniae (GC 4565) (µg/mL)
All answers are understood in µg/mL, so give the number only.

Query block: Return reported MIC Streptococcus pneumoniae (GC 4565) for target or system Streptococcus sp., item CCCC(C)C1OCC2OC(OC3C(CO)OC(Oc4ccc(CC5NC(=O)C(C(C)c6ccccc6)NC(=O)CNC(=O)C(CO)NC(=O)C(C(O)C6CNC(=N)N6C6OC(CO)C(O)C(O)C6O)NC(=O)C(C(O)C6CNC(=N)N6)NC5=O)cc4)C(O)C3O)C(O)C(O)C2O1 (centres unmarked) .
Result block: 0.5

====

# System: Staphylococcus sp.
# ASSAY_INFO: in vitro antibacterial evaluation, MIC by broth dilution
# Format: cell-based
# CONDITION_SET: broth dilution, 18 hours at 35° C.
ATTRIBUTE_MEASURED: MIC Coagulase Negative Staphylococcus (ID-3941) (µg/mL)
All answers are understood in µg/mL, so give the number only.

Query block: For the compound CC(C)CC1OCC2OC(OC3C(CO)OC(Oc4ccc(CC5NC(=O)C(C(C)c6ccccc6)NC(=O)CNC(=O)C(CO)NC(=O)C(C(O)C6CNC(=N)N6C6OC(CO)C(O)C(O)C6O)NC(=O)C(C(O)C6CNC(=N)N6)NC5=O)cc4)C(O)C3O)C(O)C(O)C2O1 (centres unmarked) , report MIC Coagulase Negative Staphylococcus (ID-3941).
Result block: 1

Query block: For the compound CC(c1ccccc1)C1NC(=O)CNC(=O)C(CO)NC(=O)C(C(O)C2CNC(=N)N2C2OC(CO)C(O)C(O)C2O)NC(=O)C(C(O)C2CNC(=N)N2)NC(=O)C(Cc2ccc(OC3OC(CO)C(OC4OC(COC(=O)C(c5ccccc5)c5ccccc5)C(O)C(O)C4O)C(O)C3O)cc2)NC1=O (centres unmarked) [Example 96c] , report MIC Coagulase Negative Staphylococcus (ID-3941).
Result block: 0.5

====

# System: Enterococcus sp.
# ASSAY_INFO: in vitro antibacterial evaluation, MIC by broth dilution
# Assay type: cell-based
# CONDITION_SET: Enterococcus faecium (GC 4557); broth dilution, 18 hours at 35° C.
# Source text: Methods for in vitro Antibacterial Evaluation (Table 1) […]
Numbered stars: 1 amine (or outer) side, 2 acyl side, 3 side chain; on linkers, the order of the positions; unused ones are H or OH. Square brackets hold non-standard residues; d marks the D form. Peptide text beside a SMILES is read from it. * marks the point of attachment. ξ: configuration not given here. X1 = N=C1NCC(C(O)C(N[*:1])C(=O)[*:2])N1C1OC(CO)C(O)C(O)C1O; ξEnduracididine(βξ-OH,4'ξ) = N=C1NCC(C(O)C(N)C(=O)O)N1; X2 = OCC1OC(OC2C(CO)OC(*)C(O)C2O)C(O)C(O)C1O; Cha = N[CH](CC1CCCCC1)C(=O)O
ATTRIBUTE_MEASURED: MIC Enterococcus faecium (GC 4557) (µg/mL)
All answers are understood in µg/mL, so give the number only.

Query block: For the compound N=C1NCC(C(O)C2NC(=O)C(Cc3ccc(OC4OC(CO)C(OC5OC(CO)C(O)C(O)C5O)C(O)C4O)cc3)NC(=O)C(CC3CCCCC3)NC(=O)CNC(=O)C(CO)NC(=O)C(C(O)C3CNC(=N)N3C3OC(CO)C(O)C(O)C3O)NC2=O)N1 (stereo not drawn) [Example 263] (cyclo(G[Cha]Y(X2)[ξEnduracididine(βξ-OH,4'ξ)][X1]S); configuration not given here) , report MIC Enterococcus faecium (GC 4557).
Result block: 32

Query block: For the compound CC(c1ccccc1)C1NC(=O)CNC(=O)C(CO)NC(=O)C(C(O)C2CN(Cc3ccc4ccccc4c3)C(=N)N2C2OC(CO)C(O)C(O)C2O)NC(=O)C(C(O)C2CNC(=N)N2)NC(=O)C(Cc2ccc(OC3OC(CO)C(OC4OC(CO)C(O)C(O)C4O)C(O)C3O)cc2)NC1=O (stereo not shown) [Example 67] , report MIC Enterococcus faecium (GC 4557).
Result block: 128

Query block: For the compound CC(c1ccccc1)C1NC(=O)CNC(=O)C(CO)NC(=O)C(C(O)C2CN(Cc3ccccc3)C(=NCc3ccccc3)N2C2OC(CO)C(O)C(O)C2O)NC(=O)C(C(O)C2CN(Cc3ccccc3)C(=NCc3ccccc3)N2Cc2ccccc2)NC(=O)C(Cc2ccc(OC3OC(CO)C(OC4OC(CO)C(O)C(O)C4O)C(O)C3O)cc2)NC1=O (stereo not shown) [Example 62] , report MIC Enterococcus faecium (GC 4557).
Result block: 64

Query block: For the compound CC(c1ccccc1)C1NC(=O)CNC(=O)C(CO)NC(=O)C(C(O)C2CNC(=N)N2C2OC(CO)C(O)C(O)C2O)NC(=O)C(C(O)C2CNC(=N)N2)NC(=O)C(Cc2ccc(OC3OC(CO)C(OC4OC(COC(=O)NCc5ccccc5)C(O)C(O)C4O)C(O)C3O)cc2)NC1=O (stereo not shown) [Example 257b] , report MIC Enterococcus faecium (GC 4557).
Result block: 2

Query block: For the compound N=C1NCC(C(O)C2NC(=O)C(Cc3ccc(OC4OC(CO)C(OC5OC(CO)C(O)C6OC7(OC56)C5CC6CC(C5)CC7C6)C(O)C4O)cc3)NC(=O)C(CC3CCCCC3)NC(=O)CNC(=O)C(CO)NC(=O)C(C(O)C3CNC(=N)N3C3OC(CO)C(O)C(O)C3O)NC2=O)N1 (stereo not shown) [Example 106a] , report MIC Enterococcus faecium (GC 4557).
Result block: 2

====

# Test system: Staphylococcus sp.
# ASSAY_INFO: in vitro antibacterial evaluation, MIC by broth dilution
# Assay type: cell-based
# CONDITION_SET: broth dilution, 18 hours at 35° C., inoculum 5×10^5 CFU/mL; strain GC 1131
ATTRIBUTE_MEASURED: MIC Staphylococcus aureus (GC 1131) (µg/mL)
All answers are understood in µg/mL, so give the number only.

Query block: Return reported MIC Staphylococcus aureus (GC 1131) for target or system Staphylococcus sp., item CC(c1ccc(Cl)cc1)C1NC(=O)CNC(=O)C(CO)NC(=O)C(C(O)C2CNC(=N)N2C2OC(CO)C(O)C(O)C2O)NC(=O)C(C(O)C2CNC(=N)N2)NC(=O)C(Cc2ccc(OC3OC(CO)C(OC4OC5COC(c6ccccc6)OC5C(O)C4O)C(O)C3O)cc2)NC1=O (centres unmarked) .
Result block: 0.5

====

# Test system: Enterococcus sp.
# ASSAY_INFO: in vitro antibacterial evaluation, MIC by broth dilution
# Assay type: cell-based
# CONDITION_SET: broth dilution, 18 hours at 35° C.
ATTRIBUTE_MEASURED: MIC Enterococcus faecalis (GC 4554) (µg/mL)
All answers are understood in µg/mL, so give the number only.

Query block: For the compound CC(c1ccccc1)C1NC(=O)CNC(=O)C(CO)NC(=O)C(C(O)C2CNC(=N)N2C2OC(CO)C(O)C(O)C2O)NC(=O)C(C(O)C2CNC(=N)N2)NC(=O)C(Cc2ccc(OC3OC(CO)C(OC4OC5COC6(CC(C)(C)CC(C)(C)C6)OC5C(O)C4O)C(O)C3O)cc2)NC1=O (centres unmarked) , report MIC Enterococcus faecalis (GC 4554).
Result block: 4

Query block: For the compound CCCCCNC(=O)OCC1OC(OC2C(CO)OC(Oc3ccc(CC4NC(=O)C(C(C)c5ccccc5)NC(=O)CNC(=O)C(CO)NC(=O)C(C(O)C5CNC(=N)N5C5OC(CO)C(O)C(O)C5O)NC(=O)C(C(O)C5CNC(=N)N5)NC4=O)cc3)C(O)C2O)C(O)C(O)C1O (centres unmarked) [Example 251b] , report MIC Enterococcus faecalis (GC 4554).
Result block: 64

====

Consider the following compounds; for each one, report its MIC Escherichia coli (ATCC 25922).
# Tested on: Escherichia coli
# ASSAY_INFO: in vitro antibacterial evaluation, MIC by broth dilution
# Type: cell-based
# CONDITION_SET: 18 hours at 35° C.
All answers are understood in µg/mL, so give the number only.

Query block: For the compound CC(c1ccccc1)C1NC(=O)CNC(=O)C(CO)NC(=O)C(C(O)C2CNC(=N)N2C2OC(CO)C(O)C(O)C2O)NC(=O)C(C(O)C2CNC(=N)N2)NC(=O)C(Cc2ccc(OC3OC(CO)C(OC4OC5COC6(CCCCCCCCCCC6)OC5C(O)C4O)C(O)C3O)cc2)NC1=O (stereo not shown) [Example 209] , report MIC Escherichia coli (ATCC 25922).
Result block: 64

Query block: For the compound CC(c1ccccc1)C1NC(=O)CNC(=O)C(CO)NC(=O)C(C(O)C2CNC(=N)N2C2OC(CO)C(O)C(O)C2O)NC(=O)C(C(O)C2CNC(=N)N2)NC(=O)C(Cc2ccc(OC3OC(CO)C(OC4OC5COC6(CCCCC6)OC5C(O)C4O)C(O)C3O)cc2)NC1=O (stereo not shown) [Example 203] , report MIC Escherichia coli (ATCC 25922).
Result block: 64
